Parameter Kd: see the listing below.
Target: T1, Murine FAP ectodomain + poly-lys-tag + his6-tag (murine, UniProt P97321 27-761)
T1 construct: also called mu FAP
Assay: SPR (ProteOn XPR36), purified Fab, monovalent binding
I only need the number, in nM, no unit after it.

Reference set (3 entries):
1. 16F1 Fab (Fab, V domains shown, also called clone 16F1) VH: EVQLLESGGGLVQPGGSLRLSCAASGFTFSSYAMSWVRQAPGKGLEWVSGIIGSGGITYYADSVKGRFTISRDNSKNTLYLQMNSLRAEDTAVYYCAKGWFGGFNYWGQGTLVTVSS VL: EIVLTQSPGTLSLSPGERATLSCRASQSVTSSYLAWYQQKPGQAPRLLINVGSRRATGIPDRFSGSGSGTDFTLTISRLEPEDFAVYYCQQGIMLPPTFGQGTKVEIK: 3.4
2. 4B9 Fab (Fab, V domains shown, also called clone 4B9) VH: EVQLLESGGGLVQPGGSLRLSCAASGFTFSSYAMSWVRQAPGKGLEWVSAIIGSGASTYYADSVKGRFTISRDNSKNTLYLQMNSLRAEDTAVYYCAKGWFGGFNYWGQGTLVTVSS VL: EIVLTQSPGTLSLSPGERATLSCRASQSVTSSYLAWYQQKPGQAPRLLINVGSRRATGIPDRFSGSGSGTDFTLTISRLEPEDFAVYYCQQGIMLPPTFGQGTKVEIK: 3.3
3. 14B3 Fab (Fab, V domains shown, also called clone 14B3) VH: EVQLLESGGGLVQPGGSLRLSCAASGFTFSSYAMSWVRQAPGKGLEWVSAILASGAITYYADSVKGRFTISRDNSKNTLYLQMNSLRAEDTAVYYCAKGWFGGFNYWGQGTLVTVSS VL: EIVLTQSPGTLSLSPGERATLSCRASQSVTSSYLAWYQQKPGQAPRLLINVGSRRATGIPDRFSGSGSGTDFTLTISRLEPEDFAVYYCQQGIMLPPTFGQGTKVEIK: 3.8

Lab note: next binder to report on.
Form: binder = 19G1 Fab (Fab, V domains shown, also called clone 19G1) VH: EVQLLESGGGLVQPGGSLRLSCAASGFTFSSYAMSWVRQAPGKGLEWVSAIISSGGLTYYADSVKGRFTISRDNSKNTLYLQMNSLRAEDTAVYYCAKGWFGGFNYWGQGTLVTVSS VL: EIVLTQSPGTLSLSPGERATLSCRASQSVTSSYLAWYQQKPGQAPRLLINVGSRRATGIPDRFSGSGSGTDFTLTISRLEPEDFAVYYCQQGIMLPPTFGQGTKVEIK ; Kd = 2.6

Value source: patent US20110064751A1
